- System: Streptococcus
- EXPERIMENT: GAS UMAA2166 growth inhibition – luminescence, BacTiterGlo, counter-screen for streptokinase expression inhibitor project, dose response (AID 1915);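 further: potency for reduction of bacterial viability or growth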
- Assay type: functional, organism-based
Calls of active or inactive are those of the source.
EC50 values by entry
METRIC_NAME: EC50

compound=COc1ccccc1C(=O)NC(=S)Nc1ccc(NC(=O)c2ccco2)cc1 system=Streptococcus reported_measurement="114 µM (inconclusive)"
compound="CCc1ccccc1NC(=O)NC(C)c1ccc2c(c1)OCO2 (stereo not drawn)" system=Streptococcus reported_measurement="> 150 µM (not active)"
compound=Cc1[nH]n(-c2ccccc2)c(=O)c1/C=N/NC(=O)c1ccccc1F system=Streptococcus reported_measurement="6.72 µM (active)"
compound="N#CC(C(=O)C12CC3CC(CC(C3)C1)C2)c1nc2ccccc2[nH]1 (stereo not drawn)" system=Streptococcus reported_measurement="> 150 µM (not active)"
compound=Cc1ccc(OP(=O)(Nc2cccc(C)c2)Oc2ccc(C)cc2)cc1 system=Streptococcus reported_measurement="28.9 µM (active)"
compound=O=S(=O)(c1ccccc1)N1CCN=C1SCc1c(F)cccc1Cl system=Streptococcus reported_measurement="> 150 µM (not active)"
compound=CCOc1ccc(-n2cc(-c3ccccc3)c3c(S)ncnc32)cc1 system=Streptococcus reported_measurement="14.9 µM (active)"
compound="CCCC(=O)NC(c1ccc(Cl)cc1Cl)c1ccc2cccnc2c1O (stereo not drawn)" system=Streptococcus reported_measurement="7.38 µM (active)"

----------
- SYSTEM: Homeodomain-interacting protein kinase 2 (Homo sapiens);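 further: measured within a kinome-wide kinase profiling panel, HIPK2 being one panel member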
- Sequence (Q9H2X6 whole entry): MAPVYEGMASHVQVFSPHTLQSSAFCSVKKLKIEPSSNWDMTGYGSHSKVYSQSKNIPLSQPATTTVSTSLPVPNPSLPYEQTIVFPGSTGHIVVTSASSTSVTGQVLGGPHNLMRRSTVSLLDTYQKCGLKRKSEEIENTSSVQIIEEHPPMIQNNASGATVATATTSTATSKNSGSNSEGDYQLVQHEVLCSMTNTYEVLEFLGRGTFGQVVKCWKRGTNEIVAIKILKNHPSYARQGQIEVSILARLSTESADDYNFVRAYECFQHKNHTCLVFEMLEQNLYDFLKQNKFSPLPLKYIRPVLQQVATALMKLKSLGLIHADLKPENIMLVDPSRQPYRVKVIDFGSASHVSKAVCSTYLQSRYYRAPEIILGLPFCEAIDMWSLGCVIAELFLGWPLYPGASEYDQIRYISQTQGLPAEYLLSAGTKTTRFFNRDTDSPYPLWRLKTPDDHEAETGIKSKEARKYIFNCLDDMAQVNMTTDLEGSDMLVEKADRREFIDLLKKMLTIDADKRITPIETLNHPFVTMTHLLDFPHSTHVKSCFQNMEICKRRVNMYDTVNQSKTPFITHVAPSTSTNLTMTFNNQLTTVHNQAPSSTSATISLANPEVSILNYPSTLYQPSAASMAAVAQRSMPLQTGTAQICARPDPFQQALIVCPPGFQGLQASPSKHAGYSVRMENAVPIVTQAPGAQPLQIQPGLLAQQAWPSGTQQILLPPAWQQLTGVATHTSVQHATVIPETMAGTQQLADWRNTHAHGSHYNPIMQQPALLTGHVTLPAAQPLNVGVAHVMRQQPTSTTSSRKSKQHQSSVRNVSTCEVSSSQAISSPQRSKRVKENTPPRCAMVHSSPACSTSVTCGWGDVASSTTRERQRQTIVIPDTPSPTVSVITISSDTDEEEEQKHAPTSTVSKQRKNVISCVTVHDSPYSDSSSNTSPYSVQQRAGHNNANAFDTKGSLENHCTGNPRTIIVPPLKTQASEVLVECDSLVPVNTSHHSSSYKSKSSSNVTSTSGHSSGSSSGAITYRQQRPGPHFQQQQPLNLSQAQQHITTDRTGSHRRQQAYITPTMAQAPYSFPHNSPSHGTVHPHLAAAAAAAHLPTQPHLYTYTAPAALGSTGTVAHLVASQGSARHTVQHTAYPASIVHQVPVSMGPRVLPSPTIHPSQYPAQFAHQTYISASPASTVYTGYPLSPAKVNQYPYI
- Assay type: functional
Active and inactive are the calls of the source.
METRIC_NAME: Ki

compound=O=C(Nc1cc(-c2c[nH]c3ncccc23)cc(Cl)n1)c1ccccc1 reported_measurement="> 3.98 µM (inactive)"
compound="CCC(CO)Nc1nc(NCc2ccccc2)c2ncn(C(C)C)c2n1 (stereo not drawn) [(RS)-ROSCOVITINE]" reported_measurement="> 3.16 µM (inactive)"
compound=c1ccc(Cn2cc(-c3ccc4[nH]nc(-c5ccccc5)c4c3)nn2)cc1 reported_measurement="0.0316 µM (active)"
compound="COCC(C)Nc1cc(-c2c[nH]c3ncccc23)cc(Cl)n1 (centres undefined)" reported_measurement="0.0631 µM (active)"

----------
- SYSTEM: DNA repair protein RAD52 homolog (Homo sapiens, UniProt P43351)
- Sequence (P43351 whole entry): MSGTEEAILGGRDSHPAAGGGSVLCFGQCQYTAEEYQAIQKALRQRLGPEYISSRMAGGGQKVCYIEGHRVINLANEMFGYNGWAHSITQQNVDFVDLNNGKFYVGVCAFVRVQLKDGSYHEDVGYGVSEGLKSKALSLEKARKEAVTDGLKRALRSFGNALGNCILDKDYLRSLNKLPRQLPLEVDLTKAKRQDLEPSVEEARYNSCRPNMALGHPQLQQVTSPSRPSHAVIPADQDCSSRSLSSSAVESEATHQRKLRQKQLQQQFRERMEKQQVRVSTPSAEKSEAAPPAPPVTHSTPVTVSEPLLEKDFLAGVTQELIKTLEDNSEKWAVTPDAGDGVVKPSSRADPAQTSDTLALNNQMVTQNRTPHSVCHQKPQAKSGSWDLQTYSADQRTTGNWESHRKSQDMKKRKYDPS
- Type: functional, biochemical
Active and inactive are the calls of the source.
METRIC_NAME: AC50

molecule=CN(C)CCNc1ncnc2sc(-c3ccccc3)cc12 reported_measurement="9 µM (active)"
molecule=Cc1cc(N2CCN(C)CC2)nc2ccc(NC(S)=NCc3cccs3)cc12 reported_measurement="17 µM (active)"
molecule="O=C1c2c(O)ccc(O)c2C(=O)c2c(NCCNCCO)ccc(NCCNCCO)c21 [MITOXANTRONE]" reported_measurement="< 0.244 µM (active)"
molecule=Nc1c2ccccc2nc2ccccc12 reported_measurement="2.48 µM (active)"
molecule=CCN(CC)CCn1c2ccccc2c2nc3ccccc3nc21 reported_measurement="3.27 µM (active)"
molecule=N=C(N)/N=N/C(=N\Nc1ccccc1)c1ccc(Cl)cc1 reported_measurement="12.7 µM (active)"
molecule=Cc1cc2nc(NC(=N)N)nc(C)c2cc1C reported_measurement="3.41 µM (active)"

----------
- SYSTEM: Exodeoxyribonuclease V (Escherichia coli (strain K12), UniProt P04993+P07648+P08394)
- Sequence (P04993 whole entry): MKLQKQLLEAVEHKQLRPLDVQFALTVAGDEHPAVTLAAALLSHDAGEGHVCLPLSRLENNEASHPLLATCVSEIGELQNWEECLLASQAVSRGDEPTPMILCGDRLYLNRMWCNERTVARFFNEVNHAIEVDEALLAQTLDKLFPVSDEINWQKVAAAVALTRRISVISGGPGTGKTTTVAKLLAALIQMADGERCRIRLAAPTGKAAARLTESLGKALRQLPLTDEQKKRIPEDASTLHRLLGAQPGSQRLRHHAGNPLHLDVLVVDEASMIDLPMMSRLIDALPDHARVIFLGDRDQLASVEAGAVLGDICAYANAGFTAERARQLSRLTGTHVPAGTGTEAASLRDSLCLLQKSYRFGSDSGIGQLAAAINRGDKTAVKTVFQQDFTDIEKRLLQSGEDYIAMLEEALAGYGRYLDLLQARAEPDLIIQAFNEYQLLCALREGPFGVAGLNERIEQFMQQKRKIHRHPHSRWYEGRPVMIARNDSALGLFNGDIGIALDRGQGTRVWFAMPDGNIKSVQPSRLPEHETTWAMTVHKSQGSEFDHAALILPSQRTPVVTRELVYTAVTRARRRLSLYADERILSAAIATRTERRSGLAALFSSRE
- Sequence (P07648 whole entry): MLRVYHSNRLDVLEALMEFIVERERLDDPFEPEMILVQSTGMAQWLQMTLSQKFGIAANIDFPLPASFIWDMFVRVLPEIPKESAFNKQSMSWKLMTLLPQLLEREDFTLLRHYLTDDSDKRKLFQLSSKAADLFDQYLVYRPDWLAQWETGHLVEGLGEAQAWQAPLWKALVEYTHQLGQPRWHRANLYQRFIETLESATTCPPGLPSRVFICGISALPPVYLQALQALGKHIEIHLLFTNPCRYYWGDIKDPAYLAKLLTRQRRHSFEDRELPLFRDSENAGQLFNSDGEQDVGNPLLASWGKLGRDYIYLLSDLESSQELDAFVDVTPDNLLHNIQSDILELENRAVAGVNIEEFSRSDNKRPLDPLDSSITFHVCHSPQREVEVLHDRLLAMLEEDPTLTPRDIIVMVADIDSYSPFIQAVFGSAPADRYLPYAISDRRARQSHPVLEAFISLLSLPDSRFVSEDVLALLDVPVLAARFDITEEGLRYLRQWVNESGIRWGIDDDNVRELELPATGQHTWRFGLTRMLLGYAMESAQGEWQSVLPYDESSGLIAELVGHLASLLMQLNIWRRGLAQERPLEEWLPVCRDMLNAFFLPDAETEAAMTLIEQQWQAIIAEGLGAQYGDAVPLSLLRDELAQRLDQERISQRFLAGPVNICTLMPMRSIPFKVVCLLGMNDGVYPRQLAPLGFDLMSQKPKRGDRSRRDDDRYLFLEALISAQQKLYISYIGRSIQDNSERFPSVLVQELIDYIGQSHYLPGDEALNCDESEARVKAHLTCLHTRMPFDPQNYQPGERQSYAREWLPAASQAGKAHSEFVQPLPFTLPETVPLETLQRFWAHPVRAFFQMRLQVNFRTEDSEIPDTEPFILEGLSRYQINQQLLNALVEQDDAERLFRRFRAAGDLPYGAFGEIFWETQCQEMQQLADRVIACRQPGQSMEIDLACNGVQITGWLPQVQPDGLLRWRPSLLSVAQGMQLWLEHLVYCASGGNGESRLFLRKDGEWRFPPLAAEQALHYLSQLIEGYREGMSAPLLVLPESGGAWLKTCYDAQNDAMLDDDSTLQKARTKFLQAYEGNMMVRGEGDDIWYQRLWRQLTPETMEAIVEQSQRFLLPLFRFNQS
- Sequence (P08394 whole entry): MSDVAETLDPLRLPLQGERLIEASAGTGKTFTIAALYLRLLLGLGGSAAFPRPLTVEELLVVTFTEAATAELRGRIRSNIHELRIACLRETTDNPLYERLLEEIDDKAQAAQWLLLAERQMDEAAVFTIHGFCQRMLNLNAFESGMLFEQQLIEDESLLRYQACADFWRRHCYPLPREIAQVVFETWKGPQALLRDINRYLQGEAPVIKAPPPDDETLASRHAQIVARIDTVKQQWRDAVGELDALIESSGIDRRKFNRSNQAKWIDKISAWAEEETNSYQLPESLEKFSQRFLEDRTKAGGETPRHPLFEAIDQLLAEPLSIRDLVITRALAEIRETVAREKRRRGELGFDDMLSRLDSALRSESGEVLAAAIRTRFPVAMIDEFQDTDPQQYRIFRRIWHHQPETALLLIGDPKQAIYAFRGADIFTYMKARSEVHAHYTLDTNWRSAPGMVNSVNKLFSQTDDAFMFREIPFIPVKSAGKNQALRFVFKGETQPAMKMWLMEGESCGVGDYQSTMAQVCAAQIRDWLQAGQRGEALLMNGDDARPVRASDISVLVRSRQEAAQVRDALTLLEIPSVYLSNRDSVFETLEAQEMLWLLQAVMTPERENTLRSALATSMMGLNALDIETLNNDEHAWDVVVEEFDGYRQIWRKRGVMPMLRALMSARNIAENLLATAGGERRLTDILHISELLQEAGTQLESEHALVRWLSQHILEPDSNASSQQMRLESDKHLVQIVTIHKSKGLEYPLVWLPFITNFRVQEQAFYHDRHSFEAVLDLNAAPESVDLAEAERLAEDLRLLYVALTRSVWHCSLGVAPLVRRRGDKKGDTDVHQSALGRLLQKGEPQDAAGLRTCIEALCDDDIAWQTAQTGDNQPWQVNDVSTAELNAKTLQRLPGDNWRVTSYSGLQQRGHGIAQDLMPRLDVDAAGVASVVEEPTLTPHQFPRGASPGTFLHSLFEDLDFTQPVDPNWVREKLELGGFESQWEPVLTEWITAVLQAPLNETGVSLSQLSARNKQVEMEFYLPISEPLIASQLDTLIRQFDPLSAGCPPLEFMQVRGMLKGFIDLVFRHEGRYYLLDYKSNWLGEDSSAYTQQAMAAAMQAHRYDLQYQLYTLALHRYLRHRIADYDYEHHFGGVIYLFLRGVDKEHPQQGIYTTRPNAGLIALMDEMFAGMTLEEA
- EXPERIMENT: RecBCD inhibition via phage-restricted bacterial growth – absorbance, V66 E. coli, mutant T4 phage, counter-screen for AddAB inhibitor project, dose response (AID 492957)
- Type: functional, cell-based, Escherichia coli str. K-12 substr. MG1655
Active and inactive are the calls of the source.
METRIC_NAME: IC50

molecule=NC(=NOC(=O)c1ccc(Cl)cc1)c1ncc([N+](=O)[O-])s1 metric_name=IC50 reported_measurement="> 119 µM (inactive)"
molecule="CCCCC(=O)NC(c1ccccc1Cl)c1ccc2cccnc2c1O (centres undefined)" metric_name=IC50 reported_measurement="> 119 µM (inactive)"
molecule="c1cnc2c(c1)ccc1cccnc12 [PHENANTHROLINE]" metric_name=IC50 reported_measurement="30.5 µM (inactive)"
molecule="CCCC(=O)NC(c1ccc(Cl)cc1Cl)c1ccc2cccnc2c1O (centres undefined)" metric_name=IC50 reported_measurement="> 119 µM (inactive)"

Data origin: ChEMBL document CHEMBL1201862
